These measurements were taken from the supplement of paper PMC7877785.

Assay: self-splicing fitness, log relative to wild type (ln ratio); higher = more splicing; Tetrahymena group I intron in knt gene, E. coli kanamycin selection, DiMSum; sequences stand for … in CUCUCU…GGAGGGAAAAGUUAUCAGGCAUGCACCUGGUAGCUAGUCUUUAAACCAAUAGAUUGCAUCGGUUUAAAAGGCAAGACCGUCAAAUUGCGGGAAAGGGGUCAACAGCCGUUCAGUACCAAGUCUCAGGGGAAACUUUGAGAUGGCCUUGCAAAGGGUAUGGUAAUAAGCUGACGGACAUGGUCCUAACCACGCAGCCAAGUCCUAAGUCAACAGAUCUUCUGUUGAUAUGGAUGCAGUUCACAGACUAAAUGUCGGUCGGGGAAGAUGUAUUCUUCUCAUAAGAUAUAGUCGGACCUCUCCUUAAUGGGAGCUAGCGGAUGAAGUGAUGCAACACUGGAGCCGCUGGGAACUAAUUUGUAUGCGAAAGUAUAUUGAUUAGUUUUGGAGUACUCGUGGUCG;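 also: selection with 25 µg/mL kanamycin versus none on LB agar overnight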
Details: 30 °C
readout_name: self-splicing fitness (ln)

[[record]]
input_sequence = "AUUUAGCAAUAUUACGCGUC"
readout_name = "self-splicing fitness (ln)"
experimental_result = -3.21

[[record]]
input_sequence = "AUACAGCAAUAUUACGCAAA"
readout_name = "self-splicing fitness (ln)"
experimental_result = -2.45

[[record]]
input_sequence = "GUACAGCAAUAUUACGGGUG"
readout_name = "self-splicing fitness (ln)"
experimental_result = -2.02

[[record]]
input_sequence = "CGACAGCAAUAUUACGACUG"
readout_name = "self-splicing fitness (ln)"
experimental_result = -1.32

[[record]]
input_sequence = "GGUAAGCAAUAUUACGACGG"
readout_name = "self-splicing fitness (ln)"
experimental_result = -3.74

[[record]]
input_sequence = "GAGUAGCAAUAUUACGGGCA"
readout_name = "self-splicing fitness (ln)"
experimental_result = -1.18

[[record]]
input_sequence = "AUAUAGCAAUAUUACGAGUC"
readout_name = "self-splicing fitness (ln)"
experimental_result = -2.97

[[record]]
input_sequence = "CCUGAGCAAUAUUACGUUUA"
readout_name = "self-splicing fitness (ln)"
experimental_result = -3.15

[[record]]
input_sequence = "UAACAGCAAUAUUACGAAUG"
readout_name = "self-splicing fitness (ln)"
experimental_result = -0.844

[[record]]
input_sequence = "CAUAAGCAAUAUUACGAUCG"
readout_name = "self-splicing fitness (ln)"
experimental_result = -0.428

[[record]]
input_sequence = "CCGAAGCAAUAUUACGUCUU"
readout_name = "self-splicing fitness (ln)"
experimental_result = -3.58

[[record]]
input_sequence = "GAUGAGCAAUAUUACGUUCU"
readout_name = "self-splicing fitness (ln)"
experimental_result = -2.89

[[record]]
input_sequence = "UCUCAGCAAUAUUACGCUGG"
readout_name = "self-splicing fitness (ln)"
experimental_result = -3.25

[[record]]
input_sequence = "CAAUAGCAAUAUUACGCGCU"
readout_name = "self-splicing fitness (ln)"
experimental_result = -3.61

[[record]]
input_sequence = "AGCAAGCAAUAUUACGCGGG"
readout_name = "self-splicing fitness (ln)"
experimental_result = -3.87

[[record]]
input_sequence = "CUGUAGCAAUAUUACGAUGU"
readout_name = "self-splicing fitness (ln)"
experimental_result = -5.35

